Recorded melting point for the following molecules
Counter-ions that a name gives are not always drawn.
METRIC_NAME: melting point

[[record]]
molecule = "COc1cc(OC)c2c(=O)[nH]c(-c3ccc(OCCNC(C)C)c(-c4ccc([S+](C)[O-])cc4)n3)nc2c1 (stereo not shown)"
result = "93 to 95 °C"

[[record]]
molecule = "COc1cc(OC)c2c(=O)[nH]c(-c3ccc(OCCN4CCOCC4)c(-c4ccc(S(C)(=O)=O)cc4)n3)nc2c1.Cl"
result = "226 to 228 °C"

[[record]]
molecule = "COc1cc(OC)c2c(=O)[nH]c(-c3cccc(-c4ccc([S+](C)[O-])s4)c3)nc2c1 (stereo not shown)"
result = "289 to 290 °C"

[[record]]
molecule = "COc1cc(OC)c2c(=O)[nH]c(-c3ccc(OCCO)c(-c4ccc(C(C)=O)cc4)n3)nc2c1 (as salt: hydrochloride)"
result = "232 to 234 °C"

[[record]]
molecule = "COc1cc(OC)c2c(=O)[nH]c(-c3ccc(OCC[N+]4([O-])CCCC4)c(-c4ccc(S(C)(=O)=O)cc4)n3)nc2c1"
result = "167 to 170 °C"

[[record]]
molecule = "COc1cc(OC)c2c(=O)[nH]c(-c3ccc(OCCNC(C)C)c(-c4ccc(S(C)(=O)=O)cc4C)n3)nc2c1"
result = "202 to 203 °C"

[[record]]
molecule = "COc1cc(OC)c2c(=O)[nH]c(-c3ccc(OCCO)c(-c4cccc(S(C)(=O)=O)c4)n3)nc2c1 (as salt: methanesulfonate)"
result = "218 to 220 °C"


----------
molecular target: Brd4 bromodomain 1 (Homo sapiens, UniProt O60885); construct: made in house; host or cells: E. coli BL21(DE3); experiment: Inhibition of tetra-acetylated histone H4 binding to BET bromodomains (TR-FRET); parameters: key: Active: Compounds with an IC50 value less than 30 μM were deemed to be active.; Not Active: Compounds with an IC50 value less than 30 μM were deemed to be active; conditions: first bromodomain of Brd4, tetra-acetylated histone H4 peptide
METRIC_NAME: FRET activity (IC50 < 30 μM)

[[record]]
compound = "CC(C)NCCOc1ccc(-c2nc3ccccc3c(=O)[nH]2)nc1-c1ccc([S+](C)[O-])cc1 (stereo not drawn)"
result = "Active"

[[record]]
compound = "COc1cc(F)cc2nc(-c3ccc(OC4CN(C)C4)c(-c4ccc([S+](C)[O-])cc4)c3)[nH]c(=O)c12 (stereo not drawn)"
result = "Active"

[[record]]
compound = "CCS(=O)(=O)c1ccc(-c2nc(-c3nc4cc(OC)cc(OC)c4c(=O)[nH]3)ccc2OCCNC(C)C)cc1"
result = "Active"

[[record]]
compound = "COc1cc(OC)c2c(=O)[nH]c(-c3cccc(-c4ccc([S+](C)[O-])cc4)c3)nc2c1 (stereo not drawn)"
result = "Not Active"

[[record]]
compound = "COc1cc(OC)c2c(=O)[nH]c(-c3ccc(OCCNC(C)C)c(-c4cccc([S+](C)[O-])c4)n3)nc2c1 (stereo not drawn)"
result = "Active"

[[record]]
compound = "COc1cc(OC)c2c(=O)[nH]c(-c3ccc(OC)c(-c4ccc(S(C)(=O)=O)cc4)n3)nc2c1"
result = "Active"

[[record]]
compound = "COc1cc(OC)c2c(=O)[nH]c(-c3ccc(OCCO)c(-c4cccc(S(C)(=O)=O)c4)n3)nc2c1 [Example 36, methanesulfonate]"
result = "Not Active"

[[record]]
compound = "COc1cc(OC)c2c(=O)[nH]c(-c3ccc(OCCNC(C)C)c(-c4ccc(C(=O)N(C)C)cc4C)n3)nc2c1"
result = "Active"

[[record]]
compound = "COc1cc(OC)c2c(=O)[nH]c(-c3ccc(OCCNC(C)C)c(-c4ccc([S+](C)[O-])cc4)c3)nc2c1 (stereo not drawn)"
result = "Active"

[[record]]
compound = "CC(C)NCCOc1ccc(-c2nc3ccccc3c(=O)[nH]2)nc1-c1ccc(S(C)(=O)=O)cc1"
result = "Active"

[[record]]
compound = "COc1cc(OC)c2c(=O)[nH]c(-c3ccc(OCCNC(C)C)c(-c4ccc(S(C)(=O)=O)cc4)n3)nc2c1"
result = "Active"

[[record]]
compound = "COc1cc(OC)c2c(=O)[nH]c(-c3ccc(OCCO)c(-c4ccccc4S(C)(=O)=O)n3)nc2c1"
result = "Active"

[[record]]
compound = "COc1cc(OC)c2c(=O)[nH]c(-c3ccc(OCCNC(C)C)c(-c4ccccc4)n3)nc2c1"
result = "Active"

[[record]]
compound = "COc1cc(OC)c2c(=O)[nH]c(-c3ccc(OCCN4CCCC4)c(-c4ccc([S+](C)[O-])cc4)n3)nc2c1 (stereo not drawn)"
result = "Active"

[[record]]
compound = "COc1cc(OC)c2c(=O)[nH]c(-c3ccc(OCCO)c(-c4ccc(C(=O)N(C)C)cc4C)n3)nc2c1"
result = "Active"

[[record]]
compound = "COc1ccc2c(=O)[nH]c(-c3ccc(OCCO)c(-c4ccc([S+](C)[O-])cc4)n3)nc2c1 (stereo not drawn)"
result = "Active"

[[record]]
compound = "COc1cc(OC)c2c(=O)[nH]c(-c3ccc(OCCO)c(-c4ccc(C(=O)N(C)C)cc4)n3)nc2c1"
result = "Active"

[[record]]
compound = "COc1cc(OC)c2c(=O)[nH]c(-c3ccc(OCCO)c(-c4ccc(C(=O)N(C)C)cc4Cl)n3)nc2c1"
result = "Active"

[[record]]
compound = "COc1cc(OC)c2c(=O)[nH]c(-c3cccc(-c4ccc([S+](C)[O-])cc4)n3)cc2c1 (stereo not drawn)"
result = "Not Active"

[[record]]
compound = "COc1cc(OC)c2c(=O)[nH]c(-c3cc(-c4ccc([S+](C)[O-])cc4)cs3)nc2c1 (stereo not drawn)"
result = "Not Active"

[[record]]
compound = "COc1cc(OC)c2c(=O)[nH]c(-c3ccc(OCCO)c(-c4cccc([S+](C)[O-])c4)n3)nc2c1 (stereo not drawn)"
result = "Active"


----------
Recorded melting point for the following compounds
Counter-ions that a name gives are not always drawn.
METRIC_NAME: melting point

[[record]]
compound = "COc1cc(OC)c2c(=O)[nH]c(-c3ccc(OCCNC(C)C)c(-c4cccc([S+](C)[O-])c4)n3)nc2c1 (centres unmarked) [Example 40]"
result = "156 to 157 °C"

[[record]]
compound = "CC(C)NCCOc1ccc(-c2nc3ccccc3c(=O)[nH]2)nc1-c1ccc(S(C)(=O)=O)cc1 [Example 68]"
result = "188 to 189 °C"

[[record]]
compound = "COc1cc(OC)c2c(=O)[nH]c(-c3ccc(OCCNC(C)C)c(-c4ccccc4S(C)(=O)=O)n3)nc2c1 [Example 32]"
result = "178 to 180 °C"

[[record]]
compound = "COc1cc(OC)c2c(=O)[nH]c(-c3ccc(OCCN(C(=O)OC(C)(C)C)C(C)C)c(-c4ccc([S+](C)[O-])cc4)n3)nc2c1 (centres unmarked) [Example 53]"
result = "114 to 116 °C"

[[record]]
compound = "COc1cc(OC)c2c(=O)[nH]c(-c3ccc(OCCO)c(-c4ccccc4)n3)nc2c1 [Example 21]"
result = "240 to 242 °C"

[[record]]
compound = "COc1cccc2nc(-c3ccc(OCCO)c(-c4ccc(S(C)(=O)=O)cc4)n3)[nH]c(=O)c12 [Example 62]"
result = "> 300 °C"

[[record]]
compound = "COc1ccc(-c2nc3cccc(OC)c3c(=O)[nH]2)nc1-c1ccc([S+](C)[O-])cc1 (centres unmarked) [Example 57]"
result = "308 to 310 °C"

[[record]]
compound = "COc1ccc2c(=O)[nH]c(-c3ccc(OCCO)c(-c4ccc([S+](C)[O-])cc4)n3)nc2c1 (centres unmarked) [Example 60]"
result = "266 to 267 °C"

[[record]]
compound = "COc1cc(OC)c2c(=O)[nH]c(-c3ccc(OC)c(-c4ccc(C(=O)N(C)C)cc4Cl)n3)nc2c1 [Example 56]"
result = "271 to 272 °C"

[[record]]
compound = "CCS(=O)(=O)c1ccc(-c2nc(-c3nc4cc(OC)cc(OC)c4c(=O)[nH]3)ccc2OCCNC(C)C)cc1 [Example 35]"
result = "195 to 197 °C"

[[record]]
compound = "COc1cc(OC)c2c(=O)[nH]c(-c3ccc(OCCO)c(-c4ccc([S+](C)[O-])cc4)n3)nc2c1 (centres unmarked) [Example 38]"
result = "281 to 282 °C"

[[record]]
compound = "COc1cc(OC)c2c(=O)[nH]c(-c3ccc(OCCO)c(-c4ccc(S(C)(=O)=O)cc4)n3)nc2c1 (as salt: methanesulfonate) [Example 25]"
result = "134 to 136 °C"

[[record]]
compound = "COc1cc(OC)c2c(=O)[nH]c(-c3ccc(OC)c(-c4ccc(C(=O)N(C)C)cc4Cl)c3)nc2c1 [Example 59]"
result = "> 300 °C"

[[record]]
compound = "COc1cccc2nc(-c3ccc(OCCNC(C)C)c(-c4ccc(S(C)(=O)=O)cc4)n3)[nH]c(=O)c12 [Example 64]"
result = "222 to 223 °C"

[[record]]
compound = "COc1cc(OC)c2c(=O)[nH]c(-c3ccc(OCCN4CCCC4)c(-c4ccc(S(C)(=O)=O)cc4)n3)nc2c1.Cl [Example 29]"
result = "211 to 213 °C"

[[record]]
compound = "CCS(=O)(=O)c1ccc(-c2nc(-c3nc4cc(OC)cc(OC)c4c(=O)[nH]3)ccc2OCCN2CCOCC2)cc1 (as salt: hydrochloride) [Example 43]"
result = "245 °C (dec.)"

[[record]]
compound = "COc1cc(OC)c2c(=O)[nH]c(-c3ccc(OCCO)c(-c4ccccc4S(C)(=O)=O)n3)nc2c1 [Example 30]"
result = "92 to 93 °C"

[[record]]
compound = "COc1cc(OC)c2c(=O)[nH]c(-c3ccc(OCCNC(C)C)c(-c4ccc(S(C)(=O)=O)cc4C(F)(F)F)n3)nc2c1 [Example 46]"
result = "199 to 201 °C"

[[record]]
compound = "COc1ccc2c(=O)[nH]c(-c3ccc(OCCNC(C)C)c(-c4ccc(S(C)(=O)=O)cc4)n3)nc2c1 [Example 67]"
result = "204 to 205 °C"

[[record]]
compound = "COc1cc(OC)c2c(=O)[nH]c(-c3ccc(OC)c(-c4ccc(C(=O)N(C)C)cc4C)n3)nc2c1 [Example 54]"
result = "248 to 251 °C"

[[record]]
compound = "C[S+]([O-])c1ccc(-c2nc(-c3nc4ccccc4c(=O)[nH]3)ccc2OCCO)cc1 (centres unmarked) [Example 61]"
result = "261 to 262 °C"

[[record]]
compound = "COc1cc(OC)c2c(=O)[nH]c(-c3cccc(-c4ccc([S+](C)[O-])cc4)c3)nc2c1 (centres unmarked) [Example 47]"
result = "> 300 °C"

[[record]]
compound = "COc1cc(OC)c2c(=O)[nH]c(-c3ccc(OCCNC(C)C)c(-c4ccc(C(=O)N(C)C)cc4)n3)nc2c1 [Example 26]"
result = "214 to 215 °C"

[[record]]
compound = "COc1cc(OC)c2c(=O)[nH]c(-c3cccc(-c4ccc(C(=O)N(C)C)cc4)n3)nc2c1 [Example 20]"
result = "217 to 219 °C"

[[record]]
compound = "COc1cc(OC)c2c(=O)[nH]c(-c3ccc(OC)c(-c4ccc(S(C)(=O)=O)cc4)n3)nc2c1 [Example 58]"
result = "279 to 281 °C"

[[record]]
compound = "CCS(=O)(=O)c1ccc(-c2nc(-c3nc4cc(OC)cc(OC)c4c(=O)[nH]3)ccc2OCCO)cc1 [Example 34]"
result = "282 to 284 °C"

[[record]]
compound = "COc1cc(OC)c2c(=O)[nH]c(-c3cccc(-c4ccc([S+](C)[O-])cc4)n3)nc2c1 (centres unmarked) [Example 49]"
result = "281 to 282 °C"

[[record]]
compound = "COc1cc(OC)c2c(=O)[nH]c(-c3cc(-c4ccc([S+](C)[O-])cc4)cs3)nc2c1 (centres unmarked) [Example 48]"
result = "> 300 °C"

[[record]]
compound = "COc1cc(OC)c2c(=O)[nH]c(-c3ccc(OCCO)c(-c4ccc(S(C)(=O)=O)cc4)n3)nc2c1 [Example 24]"
result = "> 300 °C"

